- test_system: T1, Csm2;Psy3 (Saccharomyces cerevisiae?;Saccharomyces …, UniProt P40465;Q12318 1-213;1-242, |)
- T1 sequence 1: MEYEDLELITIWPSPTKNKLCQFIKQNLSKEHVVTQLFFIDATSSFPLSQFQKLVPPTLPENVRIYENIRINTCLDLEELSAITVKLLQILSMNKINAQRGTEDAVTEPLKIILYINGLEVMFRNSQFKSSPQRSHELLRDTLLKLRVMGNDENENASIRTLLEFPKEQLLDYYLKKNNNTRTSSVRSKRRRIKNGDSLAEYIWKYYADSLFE
- T1 sequence 2: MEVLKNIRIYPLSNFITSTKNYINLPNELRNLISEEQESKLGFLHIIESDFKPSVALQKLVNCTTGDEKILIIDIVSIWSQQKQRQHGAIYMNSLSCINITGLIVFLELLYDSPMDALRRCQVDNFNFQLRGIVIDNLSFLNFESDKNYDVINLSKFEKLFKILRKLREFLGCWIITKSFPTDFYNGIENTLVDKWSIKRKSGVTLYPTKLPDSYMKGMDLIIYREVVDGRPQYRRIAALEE
- measurement_description: fluorescence polarization
So I've got a bunch of binders here, and I need their Kd values.
# unit: nM | format: bare number

Entry 5'-overhang (20nt) (dsDNA) DNA 1: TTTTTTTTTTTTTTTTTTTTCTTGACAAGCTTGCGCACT DNA 2: AGTGCGCAAGCTTGTCAAG ; Kd = 1180

Entry Fork (20nt) (dsDNA) DNA 1: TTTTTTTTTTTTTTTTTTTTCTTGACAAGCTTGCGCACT DNA 2: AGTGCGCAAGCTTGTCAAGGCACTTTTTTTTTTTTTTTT ; Kd = 1350

Entry ds39 (dsDNA) DNA 1: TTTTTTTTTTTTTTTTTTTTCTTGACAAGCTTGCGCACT DNA 2: AGTGCGCAAGCTTGTCAAGAAAAAAAAAAAAAAAAAAAA ; Kd = 1490

Entry 3'-overhang (20nt) (dsDNA) DNA 1: CTTGACAAGCTTGCGCACT DNA 2: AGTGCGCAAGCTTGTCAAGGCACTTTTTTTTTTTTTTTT ; Kd = 1920

Entry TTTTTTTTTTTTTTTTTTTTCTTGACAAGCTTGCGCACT (ssDNA) [ss39] ; Kd = 1650
